Known Hem. HC10 (concentration of compound at 10% hemolytic activity) of a selection of molecules
Test system: human red blood cells
Assay: Hemolytic assay
Format: cell-based
Conditions: mean (n = 2)
Marks after values point to notes of the source that are not given here.

Example molecules with recorded Hem. HC10 (concentration of compound at 10% hemolytic activity):
>>> reported_result("O=C(NCCCNCCCCCCCCNCCCNC(=O)C(=O)c1c[nH]c2ccc(Br)cc12)C(=O)c1c[nH]c2ccc(Br)cc12.O=C(O)C(F)(F)F.O=C(O)C(F)(F)F [Compound 18c]")
">32 µM"
>>> reported_result("O=C(NCCCNCCCCCCCNCCCNC(=O)C(=O)c1c[nH]c2ccccc12)C(=O)c1c[nH]c2ccccc12.O=C(O)C(F)(F)F.O=C(O)C(F)(F)F [Compound 17b]")
">39 µM"
>>> reported_result("O=C(NCCCNCCCCCCCCCCNCCCNC(=O)C(=O)c1c[nH]c2ccc(Br)cc12)C(=O)c1c[nH]c2ccc(Br)cc12.O=C(O)C(F)(F)F.O=C(O)C(F)(F)F [Compound 18d]")
">32 µM"

Ask | I'd like to know its Hem. HC10 (concentration of compound at 10% hemolytic activity). The molecule in question is O=C(NCCCNCCCCNCCCNC(=O)C(=O)c1c[nH]c2c(F)cccc12)C(=O)c1c[nH]c2c(F)cccc12 [Compound 6]
Reply | >40 µM

Ask | Sample O=C(NCCCNCCCCCCNCCCNC(=O)C(=O)c1c[nH]c2c(F)cccc12)C(=O)c1c[nH]c2c(F)cccc12.O=C(O)C(F)(F)F.O=C(O)C(F)(F)F [Compound 21a] — what was its Hem. HC10 (concentration of compound at 10% hemolytic activity)?
Reply | >38 ^e µM

Ask | Endpoint output: Hem. HC10 (concentration of compound at 10% hemolytic activity) of O=C(NCCCNCCCCCCCCNCCCNC(=O)C(=O)c1c[nH]c2ccccc12)C(=O)c1c[nH]c2ccccc12 [Compound 17c] . Value?
Reply | >39 µM

###

Tested on: P. aeruginosa ATCC 27853
Experiment: Antibiotic potentiation (MIC of antibiotics in the presence of synergizing compounds), P. aeruginosa
Type: cell-based, Pseudomonas aeruginosa
Conditions: concentration required to restore doxycycline activity at 2 µg/mL (4.5 µM) against P. aeruginosa ATCC 27853
The compounds listed here are annotated with their Conc (µM) for Potentiation of doxycycline.
Expressed in µM, but write only the number.

Ask | Data request, read-out Conc (µM) for Potentiation of doxycycline, for O=C(NCCCNCCCCCCCCCCCCNCCCNC(=O)C(=O)c1c[nH]c2ccc(Br)cc12)C(=O)c1c[nH]c2ccc(Br)cc12.O=C(O)C(F)(F)F.O=C(O)C(F)(F)F [Compound 18e]
Reply | 24

Ask | GET /values?readout=Conc (µM) for Potentiation of doxycycline&item= O=C(NCCCNCCCCCCCCNCCCNC(=O)C(=O)c1c[nH]c2c(F)cccc12)C(=O)c1c[nH]c2c(F)cccc12.O=C(O)C(F)(F)F.O=C(O)C(F)(F)F [Compound 21c]
Reply | 58

Ask | What does the record list as Conc (µM) for Potentiation of doxycycline for Cc1cccc2c(C(=O)C(=O)NCCCNCCCCCCCCCCNCCCNC(=O)C(=O)c3c[nH]c4c(C)cccc34)c[nH]c12.O=C(O)C(F)(F)F.O=C(O)C(F)(F)F [Compound 23d] ?
Reply | 230

###

Test system: E. coli ATCC 25922
Test: Antimicrobial susceptibility (MIC), E. coli
Format: cell-based
Settings: Escherichia coli, ATCC25922, mean (n = 3)
Lab note - cut at 20 µM for MIC: Met if strictly below, Not met if not.

>>> classification("C[C@H]1c2cccc(O)c2C(=O)C2=C(O)[C@]3(O)C(=O)C(C(N)=O)=C(O)[C@@H](N(C)C)[C@@H]3[C@@H](O)[C@@H]21 [doxycycline, reference compound]")
"Not met"
>>> classification("COc1ccc2[nH]cc(C(=O)C(=O)NCCCNCCCCCCCNCCCNC(=O)C(=O)c3c[nH]c4ccc(OC)cc34)c2c1.O=C(O)C(F)(F)F.O=C(O)C(F)(F)F [Compound 19b]")
"Not met"
>>> classification("O=C(NCCCNCCCCCCCCCCCCNCCCNC(=O)C(=O)c1c[nH]c2ccc(Br)cc12)C(=O)c1c[nH]c2ccc(Br)cc12.O=C(O)C(F)(F)F.O=C(O)C(F)(F)F [Compound 18e]")
"Not met"
>>> classification("CC[C@H]1OC(=O)[C@H](C)[C@@H](O[C@H]2C[C@@](C)(OC)[C@@H](O)[C@H](C)O2)[C@H](C)[C@@H](O[C@@H]2O[C@H](C)C[C@H](N(C)C)[C@H]2O)[C@](C)(O)C[C@@H](C)C(=O)[C@H](C)[C@@H](O)[C@]1(C)O [erythromycin, reference compound]")
"Not met"

Ask | Does the reported MIC of COc1ccc2[nH]cc(C(=O)C(=O)NCCCNCCCCCCCCNCCCNC(=O)C(=O)c3c[nH]c4ccc(OC)cc34)c2c1 [Compound 19c] stay below 20 µM?
Reply | Not met

Ask | Would you kindly verify if MIC of Cc1ccc2[nH]cc(C(=O)C(=O)NCCCNCCCCCCCCCCCCNCCCNC(=O)C(=O)c3c[nH]c4ccc(C)cc34)c2c1.O=C(O)C(F)(F)F.O=C(O)C(F)(F)F [Compound 20e] is strictly less than 20 µM?
Reply | Met

Ask | Is 20 µM strictly greater than the compound's reported MIC? compound: O=C(N[C@H](CO)[C@H](O)c1ccc([N+](=O)[O-])cc1)C(Cl)Cl [chloramphenicol, reference compound]
Reply | Not met

Ask | Below 20 µM on MIC? Entry O=C(NCCCNCCCCCCCCCCNCCCNC(=O)C(=O)c1c[nH]c2ccc(Br)cc12)C(=O)c1c[nH]c2ccc(Br)cc12.O=C(O)C(F)(F)F.O=C(O)C(F)(F)F [Compound 18d]
Reply | Not met

###

Test system: human red blood cells
Assay: Hemolytic assay
Type: cell-based
Details: mean (n = 2)
observation-type: Hem. HC10 (concentration of compound at 10% hemolytic activity)

Recorded Hem. HC10 (concentration of compound at 10% hemolytic activity), per entry:
>>> reported_result("O=C(NCCCNCCCCCCCNCCCNC(=O)C(=O)c1c[nH]c2ccc(Br)cc12)C(=O)c1c[nH]c2ccc(Br)cc12.O=C(O)C(F)(F)F.O=C(O)C(F)(F)F [Compound 18b]")
">33 µM"
>>> reported_result("O=C(NCCCNCCCCCCCCCCCCNCCCNC(=O)C(=O)c1c[nH]c2ccccc12)C(=O)c1c[nH]c2ccccc12 [Compound 17e]")
">36 µM"
>>> reported_result("COc1cccc2c(C(=O)C(=O)NCCCNCCCCNCCCNC(=O)C(=O)c3c[nH]c4c(OC)cccc34)c[nH]c12 [Compound 7]")
">38 µM"
>>> reported_result("O=C(NCCCNCCCCCCCCCCNCCCNC(=O)C(=O)c1c[nH]c2c(F)cccc12)C(=O)c1c[nH]c2c(F)cccc12.O=C(O)C(F)(F)F.O=C(O)C(F)(F)F [Compound 21d]")
">36 µM"

Ask | Given the entry COc1cccc2c(C(=O)C(=O)NCCCNCCCCCCCCCCNCCCNC(=O)C(=O)c3c[nH]c4c(OC)cccc34)c[nH]c12.O=C(O)C(F)(F)F.O=C(O)C(F)(F)F [Compound 22d] , report its measured Hem. HC10 (concentration of compound at 10% hemolytic activity).
Reply | 8.4 µM

###

Assay: Cytotoxicity assay HEK293
Type: cell-based, human
Details: human, HEK293 cells, mean (n = 2), read-out: Cyto. IC50 (concentration of compound at 50% cytotoxicity)
observation-type: pIC50
In textbook form, pIC50 equals minus log to base ten of the concentration in mol/L.

>>> reported_result("O=C(NCCCNCCCCCCCCCCCCNCCCNC(=O)C(=O)c1c[nH]c2ccc(Br)cc12)C(=O)c1c[nH]c2ccc(Br)cc12.O=C(O)C(F)(F)F.O=C(O)C(F)(F)F [Compound 18e]")
5.07
>>> reported_result("O=C(NCCCNCCCCCCCCNCCCNC(=O)C(=O)c1c[nH]c2ccc(Br)cc12)C(=O)c1c[nH]c2ccc(Br)cc12.O=C(O)C(F)(F)F.O=C(O)C(F)(F)F [Compound 18c]")
4.74
>>> reported_result("COc1ccc2[nH]cc(C(=O)C(=O)NCCCNCCCCCCCCCCCCNCCCNC(=O)C(=O)c3c[nH]c4ccc(OC)cc34)c2c1 [Compound 19e]")
5.07
>>> reported_result("O=C(NCCCNCCCCCCCCCCNCCCNC(=O)C(=O)c1c[nH]c2ccc(Br)cc12)C(=O)c1c[nH]c2ccc(Br)cc12.O=C(O)C(F)(F)F.O=C(O)C(F)(F)F [Compound 18d]")
4.80

Ask | Need pIC50, item O=C(NCCCNCCCCCCCNCCCNC(=O)C(=O)c1c[nH]c2c(F)cccc12)C(=O)c1c[nH]c2c(F)cccc12.O=C(O)C(F)(F)F.O=C(O)C(F)(F)F [Compound 21b]
Reply | 4.96
